Test system: SF-295 CNS
Method: NCI tumour cell line growth inhibition, 48 h
Listing: TGI of selected compounds

{"Compound": "C=C1CC2OC2(C(=O)O[C@H]2CCC3[C@@H]4CCC5=CC(=O)CC[C@]5(C)C4CC[C@@]32C)C1=O (stereo not given in full)", "TGI": "42.8 µM"}
{"Compound": "O=C(O[C@H]1[C@@H](O)[C@H](n2cnc3c(Cl)ncnc32)O[C@@H]1COC(c1ccccc1)(c1ccccc1)c1ccccc1)c1ccccc1", "TGI": "53.9 µM"}
{"Compound": "COc1ccc(C(OCC2OC(n3ccc(NC(=O)c4ccccc4)nc3=O)C(O)C2O)(c2ccccc2)c2ccccc2)cc1 (stereo not given)", "TGI": "3.49 µM"}
{"Compound": "Cc1cc2c3ccc(C)[n+](C)c3ccc2n1C", "TGI": "15.6 µM"}
{"Compound": "CN(/N=C(\\C(=O)O)c1ccccc1)C1=NCCCN1", "TGI": "> 100 µM"}

Query string: Give reported TGI for CC1C(c2ccccc2)OP(=O)(OC(C#N)c2ccccc2)N1C (stereo not given) (SF-295 CNS)
Result string: > 100 µM

Query string: Give reported TGI for `COC(=O)c1ccc2c(O)c(O)ccc2c1` (SF-295 CNS)
Result string: 17.2 µM

Query string: Give reported TGI for `COc1ccc(-c2cc(-c3ccccc3)nc(SCCCC(=O)NO)n2)cc1` (SF-295 CNS)
Result string: 2.54 µM

* * *

Listing: TGI of selected molecules
Test system: SW-620 colon
Method: NCI tumour cell line growth inhibition, 48 h

{"Molecule": "CC1(CCC2C=CCC2)CCCNC1=S (stereo unspecified)", "TGI": "> 10 µM"}

Query string: Tell me TGI reported for `Cn1cnc2nc(Cl)nc(NC(C)(C)C(C)(C)O)c21`
Result string: > 100 µM

Query string: Tell me TGI reported for CC1CCCc2c(C#N)c(N)nc(-c3ccc(Cl)cc3)c21 (stereo unspecified)
Result string: > 100 µM

Query string: Tell me TGI reported for `CCCC(=O)NC1=C(NCC)C(=O)c2ccccc2C1=O`
Result string: > 100 µM

Query string: Tell me TGI reported for `CCCn1c(C)nc2c1C(=O)c1ccccc1C2=O`
Result string: > 100 µM

Query string: Tell me TGI reported for `C/C=C/[P+](c1ccccc1)(c1ccccc1)c1ccccc1`
Result string: 24.3 µM

* * *

Tested on: K-562 leukemia
Method: NCI tumour cell line growth inhibition, 48 h
Listing: TGI of selected compounds

Past entries and their recorded results:
{"Compound": "CC12Nc3ccccc3N1C(=O)c1ccccc12 (centres undefined)", "Measurement name": "TGI", "Observed value": "> 100 µM"}
{"Compound": "Cn1cnc2nc(Cl)nc(NC(C)(C)C(C)(C)O)c21", "Measurement name": "TGI", "Observed value": "> 100 µM"}
{"Compound": "Nn1c(-c2ccccc2Cl)nc2ccccc2c1=O", "Measurement name": "TGI", "Observed value": "> 100 µM"}
{"Compound": "Cc1ccc(Oc2ccc(C)cc2[N+](=O)[O-])cc1", "Measurement name": "TGI", "Observed value": "> 100 µM"}
{"Compound": "COc1cc2nc(N3CCCC3)nc(NCC3CCCCC3)c2cc1OC", "Measurement name": "TGI", "Observed value": "2.1 µM"}

Query string: Give reported TGI for `CN(/N=C(\C(=O)O)c1ccccc1)C1=NCCCN1` (K-562 leukemia)
Result string: > 100 µM

Query string: Give reported TGI for CC(CN1CCN(CCOCCO)CC1)CN1c2ccccc2Sc2ccc(Cl)cc21 (centres undefined) (K-562 leukemia)
Result string: 4.18 µM

Query string: Give reported TGI for `O=C(NCCCCCCCCNC(=O)c1cc(-c2ccccc2)nc2ccccc12)c1cc(-c2ccccc2)nc2ccccc12` (K-562 leukemia)
Result string: > 100 µM

Query string: Give reported TGI for `CN(C)CCNc1nc(-c2ccc3ccccc3c2)nc2nc[nH]c12` (K-562 leukemia)
Result string: > 100 µM

Query string: Give reported TGI for Cc1cc(=O)[nH]c(NN2C(Cl)C(=O)C2c2ccc(Cl)cc2)n1 (centres undefined) (K-562 leukemia)
Result string: 16.2 µM

Query string: Give reported TGI for CC12CCC(C(=O)OC1=O)C(C)(C)O2 (centres undefined) (K-562 leukemia)
Result string: > 100 µM

Query string: Give reported TGI for `O=C(N/N=C/c1ccc2c(c1)CCC2)c1ccccc1O` (K-562 leukemia)
Result string: > 100 µM

Query string: Give reported TGI for O=C1C2CC=CCC2C(=O)N1n1c(-c2ccccc2)n[nH]c1=O (centres undefined) (K-562 leukemia)
Result string: > 100 µM

Query string: Give reported TGI for `C=CC(=O)Nc1cccc(C)c1Nc1cc(-c2cccnc2Cc2c(C)c(OC)cc(OC)c2C)ncn1` (K-562 leukemia)
Result string: > 100 µM

* * *

Tested on: NCI-H460 lung
Method: NCI tumour cell line growth inhibition, 48 h
Measurement name: TGI

{"Chemical structure": "CS(=O)(=O)Oc1cccc(/C=N/N=C(\\N)NO)c1", "Observed value": "> 100 µM"}
{"Chemical structure": "Clc1cc(Cl)c(OCC#CI)cc1Cl", "Observed value": "30.9 µM"}
{"Chemical structure": "NC(N)=N/N=C/c1c(-c2ccccc2)nc2n1ccc1nc(-c3ccccc3)c(/C=N/N=C(N)N)n12", "Observed value": "> 100 µM"}

Query string: Tell me TGI reported for `COc1cc2c(c(OC)c1OC)-c1ncc3cc(OC)c(OC)c(OC)c3c1C2`
Result string: 78.2 µM

Query string: Tell me TGI reported for `O=C(O)C1(P(=O)(O)O)CC1`
Result string: > 100 µM

Query string: Tell me TGI reported for `COc1ccc(NC(=O)C/C(C)=N\N=C(N)N)c([N+](=O)[O-])c1`
Result string: > 100 µM

* * *

Listing: log10 of TGI of selected compounds
Test system: SK-MEL-5 melanoma
Method: NCI tumour cell line growth inhibition, 48 h
Kindly note that the scale is log10 and the underlying TGI is in µM.

Past entries and their recorded results:
{"Compound": "Cc1sc(Cc2ccccc2)nc1-c1ccc(N)cc1", "Measurement name": "log10 of TGI", "Observed value": 1.55}
{"Compound": "Cc1cc2c3ccc(C)[n+](C)c3ccc2n1C", "Measurement name": "log10 of TGI", "Observed value": 1.17}
{"Compound": "O=C(/C(=C/c1ccccc1)CN1CCCCC1)c1ccccc1", "Measurement name": "log10 of TGI", "Observed value": 0.47}
{"Compound": "Nc1ncnc2[nH]ncc12", "Measurement name": "log10 of TGI", "Observed value": 1.39}
{"Compound": "O=C(c1ccccc1)C(CN1CCOCC1)c1ccccc1 (stereo not drawn)", "Measurement name": "log10 of TGI", "Observed value": 0.58}
{"Compound": "CN(C)c1ccc(/C=C\\c2cccc[n+]2C)cc1", "Measurement name": "log10 of TGI", "Observed value": 1.06}
{"Compound": "O=C1c2c(c3c4ccccc4[nH]c3c3ccc4ccccc4c23)C(=O)N1CCN1CCCCC1", "Measurement name": "log10 of TGI", "Observed value": 0.49}
{"Compound": "CN(C)CCNC(=O)c1cccc2c(NCC(=O)O)c3ccccc3nc12", "Measurement name": "log10 of TGI", "Observed value": 1.83}
{"Compound": "CC(C)(C)c1ccc(OCCCCCCN2CCNCC2)cc1", "Measurement name": "log10 of TGI", "Observed value": 0.54}

Query string: Tell me log10 of TGI reported for Brc1cccc(C2SCc3nc4ccccc4n32)c1 (stereo not drawn)
Result string: 1.28

* * *

Tested on: HT29 colon
Method: NCI tumour cell line growth inhibition, 48 h
Measurement name: TGI

{"Molecule": "Cc1c(C#N)c(=O)[nH]c(=O)n1CCN1CCN(C(=O)NCCCCCCNC(=O)N2CCN(CCn3c(C)c(C#N)c(=O)[nH]c3=O)CC2)CC1", "TGI": "> 100 µM"}
{"Molecule": "CCOC(=O)C(=O)Nc1c(CC)cccc1C(C)C", "TGI": "> 100 µM"}
{"Molecule": "CCCCCC/C=C\\CCCCCCCCCc1cccc(O)c1C(=O)O", "TGI": "> 100 µM"}
{"Molecule": "COc1ccc([C@@H]2ON(C)[C@H]3CN(C)C(=O)[C@@H]23)cc1", "TGI": "> 100 µM"}
{"Molecule": "COc1ccc(NC2Oc3cc4c(cc3C(c3cccc(OC)c3OC)C2C)OCO4)cc1 (configuration not stated)", "TGI": "> 100 µM"}

Query string: Tell me TGI reported for `CN(C)CCNc1nc(-c2ccc3ccccc3c2)nc2nc[nH]c12`
Result string: 16.4 µM

Query string: Tell me TGI reported for `Cc1cc2c3ccc(C)[n+](C)c3ccc2n1C`
Result string: 23.8 µM

Query string: Tell me TGI reported for `O=[N+]([O-])/C=C1\COCc2cc3c(cc21)OCO3`
Result string: 67.2 µM

Query string: Tell me TGI reported for `O=C(Cn1c2c(c3ccccc31)CCCC2)NC1CCCCC1`
Result string: > 100 µM

Query string: Tell me TGI reported for COc1cc2c(cc1OC(=O)CC(C)O)C1C(OC2=O)C(OC(C)=O)C=C2CCN(C)[C@H]21 (some centres not stated)
Result string: > 100 µM

Query string: Tell me TGI reported for COc1ccc(N2C(=O)C3c4[nH]c5c(C)cccc5c4C4CCC(C(C)(C)C)CC4C3C2=O)cc1 (configuration not stated)
Result string: 5.86 µM

Query string: Tell me TGI reported for CC1=C(CCC(C)N(C)Cc2ccc(OCCCN3CCCC3)cc2)C(C)(C)CCC1 (configuration not stated)
Result string: 6.94 µM

Query string: Tell me TGI reported for `C1=NCCNCCN=Cc2ccc(cc2)OCc2cccc(n2)COc2ccc1cc2`
Result string: > 100 µM

Query string: Tell me TGI reported for `CN(C)c1ccc(/C=C\c2cccc[n+]2C)cc1`
Result string: > 100 µM

Query string: Tell me TGI reported for `Cc1ccccc1N=Nc1ccc(N=Nc2c(O)ccc3ccccc23)c(C)c1`
Result string: > 100 µM

Query string: Tell me TGI reported for COc1ccc(C2=C(Cl)c3cc(OC)c(OC)cc3C2Cl)cc1OC (configuration not stated)
Result string: 29.8 µM

Query string: Tell me TGI reported for COc1nc(N)c(NC2OC(CO)C(O)C2O)c(=O)[nH]1 (configuration not stated)
Result string: > 100 µM

Query string: Tell me TGI reported for `CN(CCO)c1nc2c(c(=O)[nH]1)CCC2`
Result string: > 100 µM
